// provenance: ChEMBL document CHEMBL4265888

# tested-system: Sphingosine 1-phosphate receptor 1 (Homo sapiens, UniProt P21453)
# Sequence (P21453 whole entry): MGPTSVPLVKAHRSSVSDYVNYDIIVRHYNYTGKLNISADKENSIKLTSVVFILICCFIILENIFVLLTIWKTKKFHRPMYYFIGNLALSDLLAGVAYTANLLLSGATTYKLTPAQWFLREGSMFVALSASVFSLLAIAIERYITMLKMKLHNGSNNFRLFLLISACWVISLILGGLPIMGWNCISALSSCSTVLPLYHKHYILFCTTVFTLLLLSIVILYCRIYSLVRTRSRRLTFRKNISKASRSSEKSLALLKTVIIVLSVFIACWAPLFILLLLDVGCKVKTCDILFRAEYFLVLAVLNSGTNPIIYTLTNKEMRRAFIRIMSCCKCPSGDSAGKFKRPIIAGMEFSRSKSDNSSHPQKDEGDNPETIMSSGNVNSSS
# assay-comment: Inhibition of S1PR1 (unknown origin) expressed in CHOK1 cells after 90 mins by beta-arresting recuitment assay
pIC50: −log10 of the molar value.
Field: pIC50. Provide a value for each of the molecules that follow.

Task: # lookup: pIC50 of CCC/N=C1\S/C(=C\c2ccc(C(=O)O)cc2)C(=O)N1c1ccccc1O
Result: < 6.00

Task: What value of pIC50 has been recorded for this entry: CCC/N=C1\S/C(=C\c2ccc(C(=O)OCc3oc(=O)oc3C)cc2)C(=O)N1c1ccccc1O
Result: < 6.00
